- assay-method-text: Plasma concentrations up to 7 hours after oral dosing of human volunteers, Example 1B
- Type: in vivo
- conditions-used: po, 7.5 mg, Example 1B subject 6 (107 kg), 7.5 mg oral, 6 h, read-out: plasma concentrations
quantity-kind: concentration at 6 h (ng/mL)
Supply the numeric figure in ng/mL, leaving out any unit text.

Give concentration at 6 h for the following compound: COc1cc2c(cc1OC)[C@H]1C[C@@H](O)[C@H](CC(C)C)CN1CC2 [(+)-α-dihydrotetrabenazine]
4.44

* * *

- assay-method-text: Plasma concentrations after oral dosing (solution in apple juice) of human volunteers, Example 1A
- Type: in vivo
- conditions-used: human, plasma, po, 7.5 mg, subject 2 (76 kg); 7.5 mg oral; 0.5 h
quantity-kind: concentration at 0.5 h (ng/mL)
Supply the numeric figure in ng/mL, leaving out any unit text.

Give concentration at 0.5 h for the following compound: COc1cc2c(cc1OC)[C@H]1C[C@@H](O)[C@H](CC(C)C)CN1CC2 [(+)-α-dihydrotetrabenazine]
0.531

* * *

- assay-method-text: Plasma concentrations up to 7 hours after oral dosing of human volunteers, Example 1B
- Assay type: in vivo
- conditions-used: po, 7.5 mg, Example 1B subject 6 (107 kg), 7.5 mg oral, 1 h
quantity-kind: concentration at 1 h (ng/mL)
Supply the numeric figure in ng/mL, leaving out any unit text.

Give concentration at 1 h for the following molecule: COc1cc2c(cc1OC)[C@H]1C[C@@H](O)[C@H](CC(C)C)CN1CC2 [(+)-α-dihydrotetrabenazine]
4.86

* * *

- assay-method-text: Plasma concentrations after oral dosing (solution in apple juice) of human volunteers, Example 1A
- Format: in vivo
- conditions-used: human, plasma, po, 15 mg, subject 2 (76 kg); 15 mg oral; 1.5 h
quantity-kind: concentration at 1.5 h

Give concentration at 1.5 h for the following molecule: COc1cc2c(cc1OC)[C@H]1C[C@@H](O)[C@H](CC(C)C)CN1CC2 [(+)-α-dihydrotetrabenazine]
46.4 ng/mL

* * *

- assay-method-text: Plasma concentrations after oral dosing (solution in apple juice) of human volunteers, Example 1A
- Assay type: in vivo
- conditions-used: human, plasma, po, 22.5 mg, subject 6 (68 kg); 22.5 mg oral; 3 h
quantity-kind: concentration at 3 h (ng/mL)
Supply the numeric figure in ng/mL, leaving out any unit text.

Give concentration at 3 h for the following molecule: COc1cc2c(cc1OC)[C@H]1C[C@@H](O)[C@H](CC(C)C)CN1CC2 [(+)-α-dihydrotetrabenazine]
18.7

* * *

- assay-method-text: Plasma concentrations up to 7 hours after oral dosing of human volunteers, Example 1B
- Format: in vivo
- conditions-used: oral, 7.5 mg, after 6 hours following administration of 7.5mg, read-out: blood plasma concentrations
quantity-kind: concentration at 6 h

Give concentration at 6 h for the following molecule: COc1cc2c(cc1OC)[C@H]1C[C@@H](O)[C@H](CC(C)C)CN1CC2 [(+)-α-dihydrotetrabenazine]
< 15 ng/mL

* * *

- assay-method-text: Plasma concentrations after oral dosing (solution in apple juice) of human volunteers, Example 1A
- Format: in vivo
- conditions-used: human, plasma, po, 7.5 mg, subject 5 (91 kg); 7.5 mg oral; 0.5 h
- Procedure: (+)-α-Dihydrotetrabenazine in defined amounts was administered by oral dosing (as a solution in apple juice) to six human volunteers. […] At 60 minutes after drug administration, PET scans were initiated and these were stopped at 120 minutes after drug administration. The experiment was carried out at dosages of 7.5 mg, 15 mg and 22.5 mg. […]
quantity-kind: concentration at 0.5 h (ng/mL)
Supply the numeric figure in ng/mL, leaving out any unit text.

Give concentration at 0.5 h for the following molecule: COc1cc2c(cc1OC)[C@H]1C[C@@H](O)[C@H](CC(C)C)CN1CC2 [(+)-α-dihydrotetrabenazine]
6.68

* * *

- assay-method-text: Plasma concentrations after oral dosing (solution in apple juice) of human volunteers, Example 1A
- Format: in vivo
- conditions-used: human, plasma, po, 22.5 mg, subject 1 (112 kg); 22.5 mg oral; 3 h
quantity-kind: concentration at 3 h (ng/mL)
Supply the numeric figure in ng/mL, leaving out any unit text.

Give concentration at 3 h for the following compound: COc1cc2c(cc1OC)[C@H]1C[C@@H](O)[C@H](CC(C)C)CN1CC2 [(+)-α-dihydrotetrabenazine]
13.2

* * *

- assay-method-text: Plasma concentrations up to 7 hours after oral dosing of human volunteers, Example 1B
- Assay type: in vivo
- conditions-used: po, 7.5 mg, Example 1B subject 3 (76 kg), 7.5 mg oral, 7 h
- Experimental: Volunteers 1 and 2 were the same as volunteers 1 and 2 in Example 1A described above. […] In addition, in all volunteers PET scans were initiated at 6 hours after drug administration and these were stopped at 7 hours after drug administration. […]
quantity-kind: concentration at 7 h (ng/mL)
Supply the numeric figure in ng/mL, leaving out any unit text.

Give concentration at 7 h for the following molecule: COc1cc2c(cc1OC)[C@H]1C[C@@H](O)[C@H](CC(C)C)CN1CC2 [(+)-α-dihydrotetrabenazine]
4.84

* * *

- assay-method-text: Plasma concentrations after oral dosing (solution in apple juice) of human volunteers, Example 1A
- Assay type: in vivo
- conditions-used: human, plasma, po, 15 mg, subject 1 (112 kg); 15 mg oral; 1 h
quantity-kind: concentration at 1 h (ng/mL)
Supply the numeric figure in ng/mL, leaving out any unit text.

Give concentration at 1 h for the following compound: COc1cc2c(cc1OC)[C@H]1C[C@@H](O)[C@H](CC(C)C)CN1CC2 [(+)-α-dihydrotetrabenazine]
11.1

* * *

- assay-method-text: Plasma concentrations up to 7 hours after oral dosing of human volunteers, Example 1B
- Format: in vivo
- conditions-used: po, 7.5 mg, Example 1B subject 6 (107 kg), 7.5 mg oral, 3 h
quantity-kind: concentration at 3 h (ng/mL)
Supply the numeric figure in ng/mL, leaving out any unit text.

Give concentration at 3 h for the following molecule: COc1cc2c(cc1OC)[C@H]1C[C@@H](O)[C@H](CC(C)C)CN1CC2 [(+)-α-dihydrotetrabenazine]
6.69

* * *

- assay-method-text: Plasma concentrations up to 7 hours after oral dosing of human volunteers, Example 1B
- Format: in vivo
- conditions-used: po, 7.5 mg, Example 1B subject 6 (107 kg), 7.5 mg oral, 7 h
quantity-kind: concentration at 7 h (ng/mL)
Supply the numeric figure in ng/mL, leaving out any unit text.

Give concentration at 7 h for the following compound: COc1cc2c(cc1OC)[C@H]1C[C@@H](O)[C@H](CC(C)C)CN1CC2 [(+)-α-dihydrotetrabenazine]
3.36

* * *

- assay-method-text: Plasma concentrations after oral dosing (solution in apple juice) of human volunteers, Example 1A
- Format: in vivo
- conditions-used: human, plasma, po, 15 mg, subject 3 (129 kg); 15 mg oral; 1.5 h
quantity-kind: concentration at 1.5 h
Kindly format the answer as number then unit.

Give concentration at 1.5 h for the following compound: COc1cc2c(cc1OC)[C@H]1C[C@@H](O)[C@H](CC(C)C)CN1CC2 [(+)-α-dihydrotetrabenazine]
17.9 ng/mL

* * *

- assay-method-text: Plasma concentrations after oral dosing (solution in apple juice) of human volunteers, Example 1A
- Format: in vivo
- conditions-used: human, plasma, po, 7.5 mg, subject 5 (91 kg); 7.5 mg oral; 1.5 h
quantity-kind: concentration at 1.5 h (µg/mL)
Supply the numeric figure in µg/mL, leaving out any unit text.

Give concentration at 1.5 h for the following compound: COc1cc2c(cc1OC)[C@H]1C[C@@H](O)[C@H](CC(C)C)CN1CC2 [(+)-α-dihydrotetrabenazine]
0.0135

* * *

- assay-method-text: Plasma concentrations after oral dosing (solution in apple juice) of human volunteers, Example 1A
- Format: in vivo
- conditions-used: human, plasma, po, 15 mg, subject 4 (59 kg); 15 mg oral; 3 h
quantity-kind: concentration at 3 h
Kindly format the answer as number then unit.

Give concentration at 3 h for the following molecule: COc1cc2c(cc1OC)[C@H]1C[C@@H](O)[C@H](CC(C)C)CN1CC2 [(+)-α-dihydrotetrabenazine]
60.2 ng/mL

* * *

- assay-method-text: Plasma concentrations after oral dosing (solution in apple juice) of human volunteers, Example 1A
- Type: in vivo
- conditions-used: human, plasma, po, 7.5 mg, subject 6 (68 kg); 7.5 mg oral; 3 h
quantity-kind: concentration at 3 h (ng/mL)
Supply the numeric figure in ng/mL, leaving out any unit text.

Give concentration at 3 h for the following compound: COc1cc2c(cc1OC)[C@H]1C[C@@H](O)[C@H](CC(C)C)CN1CC2 [(+)-α-dihydrotetrabenazine]
9.18

* * *

- assay-method-text: Plasma concentrations after oral dosing (solution in apple juice) of human volunteers, Example 1A
- Type: in vivo
- conditions-used: human, plasma, po, 7.5 mg, subject 4 (59 kg); 7.5 mg oral; 0.5 h
quantity-kind: concentration at 0.5 h (ng/mL)
Supply the numeric figure in ng/mL, leaving out any unit text.

Give concentration at 0.5 h for the following molecule: COc1cc2c(cc1OC)[C@H]1C[C@@H](O)[C@H](CC(C)C)CN1CC2 [(+)-α-dihydrotetrabenazine]
8.43
